- System: HL-60/R10
- TEST: Cytotoxicity test (ViaLight Plus cell proliferation) on HL-60/R10
- Assay type: cell-based, human
- COND: Homo sapiens, HL-60; doxorubicin-resistant line, 72 hours' incubation, cell viability vs 0.5% DMSO control; read-out: EC50 HL60/R10
- From the text: The effects of the compounds of the invention on the proliferation of cancer cells were studied on different human cancer cell lines of different tissue origin (MCF-7: breast cancer, MCF-7/adr adriamycin-resistant breast cancer, HL-60: acute promyelocytic leukaemia, HL-60/R10: doxorubicin-resistant acute promyelocytic leukaemia, HT29: colon adenocarcinoma, Mia Paca2: pancreatic tumour, Panc-1: pancreatic exocrine tumour, SK-OV-3: cisplatin- and adriamycin resistant ovarian cancer). […]
MEASURE: pIC50
Answers are plain numbers, as −log10 of the molar value.

# pIC50 of C[C@@H]1CNCCN1C(=O)C(c1cccs1)N(C(=O)CCl)c1ccc(Oc2ccccc2)cc1 (stereo partly shown) [reference compound] = 7.42

---

- Test system: HL-60
- TEST: Cytotoxicity test (ViaLight Plus cell proliferation) on HL-60
- Assay type: cell-based, human
- COND: 72 hours' incubation, cell viability vs 0.5% DMSO control
Hi there, I'd appreciate the recorded pEC50 for every entry that follows.
Numbers only, as −log10 of the molar value.

Worked examples, 4 compounds total:
# COMPOUND, READOUT_VALUE
rows = [
    ("Cc1cc(Oc2ccccc2)ccc1N(C(=O)CCl)C(C(=O)N1CCN[C@@H](CC(C)C)C1)c1cccs1 (single isomer, unassigned; dia1) [I-47 dia1]", 6.03),
    ("CC[C@@H]1CN(C(=O)C(c2ccc(F)cc2)N(C(=O)CCl)c2ccc(Oc3ccccc3)cc2C)CCN1C(=O)OC(C)(C)C (single isomer, unassigned; dia1) [I-16 dia1]", 5.83),
    ("C[C@@H]1CN(C(=O)C(c2ccc(F)cc2)N(C(=O)CCl)c2ccc(Oc3ccccc3)cc2)CCN1 (single isomer, unassigned; dia2) [I-22 dia2]", 5.94),
    ("Cc1cc(Oc2ccccc2)ccc1N(C(=O)CCl)C(C(=O)N1CCN[C@@H](C(C)C)C1)c1ccc(F)cc1 (single isomer, unassigned)", 5.71),
]

We now examine a further compound.
# pEC50 of CC[C@@H]1CN(C(=O)C(c2ccc(F)cc2)N(C(=O)CCl)c2ccc(Oc3ccccc3)cc2C)CCN1C(=O)OC(C)(C)C (single isomer, unassigned; dia2) [I-16 dia2] = 5.72

---

Hi there, I'd appreciate the recorded pEC50 for every entry that follows.
- System: HL-60
- TEST: Cytotoxicity test (ViaLight Plus cell proliferation) on HL-60
- Assay type: cell-based, human
- COND: 72 hours' incubation, cell viability vs 0.5% DMSO control
Give bare numbers, as −log10 of the molar value.

Worked examples, 5 compounds total:
# COMPOUND, pEC50
data = [
    ("Cc1cc(OC(F)(F)F)ccc1N(C(=O)CCl)C(C(=O)N1CCN[C@@H](C(C)C)C1)c1ccc(F)cc1 (single isomer, unassigned; dia1) [I-27 dia1]", 5.70),
    ("Cc1cc(Oc2ccccc2)ccc1N(C(=O)CCl)C(C(=O)N1CCN(C(=O)OC(C)(C)C)C(C(=O)NCc2ccccc2)C1)c1cccs1 (single isomer, unassigned; dia1) [I-53 dia1]", 5.70),
    ("CC[C@@H]1CN(C(=O)C(c2ccc(F)cc2)N(C(=O)CCl)c2ccc(Oc3ccccc3)cc2C)CCN1 (single isomer, unassigned; dia2) [I-18 dia2]", 6.45),
    ("CC(C)[C@@H]1CN(C(=O)C(c2ccc(F)cc2)N(C(=O)CCl)c2ccc(Oc3ccccc3)cc2)CCN1 (single isomer, unassigned) [I-4 dia1]", 6.19),
    ("CC[C@H]1CN(C(=O)C(c2ccc(F)cc2)N(C(=O)CCl)c2ccc(Oc3ccccc3)cc2)CCN1C(=O)OC(C)(C)C (single isomer, unassigned; dia2) [I-19 dia2]", 6.34),
]

For the 4 compounds below, give their pEC50 values.
1. CC(C)C[C@H]1CN(C(=O)C(c2cccs2)N(C(=O)CCl)c2ccc(Oc3ccccc3)cc2)CCN1 (single isomer, unassigned; dia2) [I-51 dia2]
2. Cc1cc(Oc2ccccc2)ccc1N(C(=O)CCl)C(C(=O)N1CCN(C(=O)OC(C)(C)C)C(C(=O)NCc2ccccc2)C1)c1cccs1 (single isomer, unassigned; dia2) [I-53 dia2]
3. CC[C@@H]1CN(C(=O)C(c2ccc(F)cc2)N(C(=O)CCl)c2ccc(Oc3ccccc3)cc2C)CCN1 (single isomer, unassigned; dia1) [I-18 dia1]
4. Cc1cc(Oc2ccccc2)ccc1N(C(=O)CCl)C(C(=O)N1CCN[C@@H](CC(C)C)C1)c1cccs1 (single isomer, unassigned; dia2) [I-47 dia2]

Result block:
1: 8.52; 2: 6.26; 3: 5.80; 4: 6.07

# pEC50 of Cc1cc(Oc2ccccc2)ccc1N(C(=O)CCl)C(C(=O)N1CCN(C(=O)OC(C)(C)C)[C@H](C)C1)c1cccs1 (single isomer, unassigned; dia1) [I-40 dia1] = 5.67

Data origin, for the record: patent US9877962B2
